Test system: Mycobacterium tuberculosis H37Rv
Experiment: Microplate Alamar Blue assay (MABA) MIC, M. tuberculosis
Format: cell-based
Settings: read-out: MIC Mycobacterium tuberculosis H37Rv
Give log10 of MIC for every item shown.
Please keep in mind that the values are log10 of MIC expressed in mg/L.

Q. I have this molecule here, Cc1ccccc1NC(=O)C(Cc1ccc(N2CCOCC2)cc1)NC(=O)c1ccccc1 (centres unmarked) [I-188] , and I need its recorded log10 of MIC.
A. 1.40

Q. I have this molecule here, Cc1ccccc1NC(=O)C(Cc1ccc(O)cc1)NC(=O)c1ccccc1 (centres unmarked) [I-13] , and I need its recorded log10 of MIC.
A. 1.10

Q. I have this molecule here, O=C(NC(Cc1ccccc1)C(=O)Nc1cc(F)ccc1N1CCNCC1)c1ccccc1 (centres unmarked) [IX-245] , and I need its recorded log10 of MIC.
A. 0.19

Q. I have this molecule here, O=C(NC(Cc1ccc(O)cc1)C(=O)Nc1cccc2c1OCCO2)c1ccccc1 (centres unmarked) [IX-21] , and I need its recorded log10 of MIC.
A. 0.80

Q. I have this molecule here, COc1ccccc1NC(=O)C(Cc1ccccc1)NC(=O)c1cccs1 (centres unmarked) [IX-29] , and I need its recorded log10 of MIC.
A. 0.49

Q. I have this molecule here, COc1ncccc1NC(=O)C(Cc1ccccc1)NC(=O)c1ccccc1 (centres unmarked) [IX-38] , and I need its recorded log10 of MIC.
A. 0.80

Q. I have this molecule here, O=C(NC(Cc1ccccc1)C(=O)Nc1cccc2scnc12)c1ccccc1 (centres unmarked) [IX-235] , and I need its recorded log10 of MIC.
A. 0.49

Q. I have this molecule here, O=C(NC(Cc1ccccc1)C(=O)Nc1cccc2c1OCO2)c1ccccc1 (centres unmarked) [IX-72] , and I need its recorded log10 of MIC.
A. 0.80

Q. I have this molecule here, Cc1ccccc1C(=O)NC(Cc1ccccc1)C(=O)Nc1ccccc1OC(F)F (centres unmarked) [IX-120] , and I need its recorded log10 of MIC.
A. 0.49

Q. I have this molecule here, CC(C)Oc1ccccc1NC(=O)C(Cc1ccccc1)NC(=O)c1ccccc1 (centres unmarked) [I-50] , and I need its recorded log10 of MIC.
A. 1.10

Q. I have this molecule here, Cc1c(NC(=O)C(Cc2ccccc2)NC(=O)c2ccccc2)cccc1C(C)C (centres unmarked) [I-138] , and I need its recorded log10 of MIC.
A. 0.80

Q. I have this molecule here, COc1ccccc1NC(=O)C(Cc1ccccc1)NC(=O)c1ccccc1F (centres unmarked) [IX-56] , and I need its recorded log10 of MIC.
A. 0.49

Q. I have this molecule here, Cc1ccc(Cl)cc1NC(=O)C(Cc1ccccc1)NC(=O)c1ccccc1C (centres unmarked) [IX-67] , and I need its recorded log10 of MIC.
A. 0.19

Q. I have this molecule here, Cc1ccc(F)cc1NC(=O)C(Cc1ccccc1)NC(=O)c1ccccc1F (centres unmarked) [IX-81] , and I need its recorded log10 of MIC.
A. 0.19

Q. I have this molecule here, CCCOc1ccccc1NC(=O)C(Cc1ccccc1)NC(=O)c1ccccc1 (centres unmarked) [I-39] , and I need its recorded log10 of MIC.
A. 0.80

Q. I have this molecule here, CC1CN(c2ccc(F)cc2NC(=O)C(Cc2ccccc2)NC(=O)c2ccccc2F)CCN1 (centres unmarked) [IX-305] , and I need its recorded log10 of MIC.
A. 0.19

Q. I have this molecule here, COc1ccc(F)cc1NC(=O)C(Cc1ccc(O)cc1)NC(=O)c1ccccc1 (centres unmarked) [IX-203] , and I need its recorded log10 of MIC.
A. -0.11

Q. I have this molecule here, Cc1ccc(Cl)cc1NC(=O)C(Cc1ccccc1)NC(=O)c1ccccc1 (centres unmarked) [I-86] , and I need its recorded log10 of MIC.
A. 0.19

Q. I have this molecule here, O=C(NC(Cc1ccccc1)C(=O)Nc1cccc2nc[nH]c12)c1ccccc1F (centres unmarked) [IX-280] , and I need its recorded log10 of MIC.
A. 1.10

Q. I have this molecule here, O=C(NC(Cc1ccccc1)C(=O)Nc1ccccc1N1CCOCC1)c1ccccc1 (centres unmarked) [I-181] , and I need its recorded log10 of MIC.
A. -0.11

Q. I have this molecule here, Cc1ccccc1C(=O)NC(Cc1ccccc1)C(=O)Nc1cc(Cl)ccc1N1CCNCC1 (centres unmarked) [IX-275] , and I need its recorded log10 of MIC.
A. 0.19

Q. I have this molecule here, Cc1ccccc1NC(=O)C(Cc1ccccc1)NC(=O)c1ccccc1F (centres unmarked) [I-80] , and I need its recorded log10 of MIC.
A. 0.49

Q. I have this molecule here, O=C(NC(Cc1ccc(O)cc1)C(=O)Nc1cccc2cnccc12)c1cccs1 (centres unmarked) [IX-33] , and I need its recorded log10 of MIC.
A. 1.10

Q. I have this molecule here, O=C(NC(Cc1ccccc1)C(=O)Nc1ccccc1OCF)c1ccccc1 (centres unmarked) [IX-27] , and I need its recorded log10 of MIC.
A. 0.19

Q. I have this molecule here, O=C(NC(Cc1ccccc1)C(=O)Nc1cc(F)ccc1N1CCOCC1)c1ccccc1F (centres unmarked) [IX-158] , and I need its recorded log10 of MIC.
A. -0.11

Q. I have this molecule here, COc1ccccc1NC(=O)C(Cc1ccc(O)cc1)NC(=O)c1cccs1 (centres unmarked) [IX-32] , and I need its recorded log10 of MIC.
A. 1.10

Q. I have this molecule here, Cn1ncc2c(NC(=O)C(Cc3ccccc3)NC(=O)c3ccccc3)cccc21 (centres unmarked) [IX-225] , and I need its recorded log10 of MIC.
A. 0.19

Q. I have this molecule here, CCc1cccc(NC(=O)C(Cc2ccccc2)NC(=O)c2ccccc2)c1C (centres unmarked) [I-116] , and I need its recorded log10 of MIC.
A. 0.80

Q. I have this molecule here, O=C(NC(Cc1ccccc1)C(=O)Nc1ccccc1N1CCCC1)c1cccs1 (centres unmarked) [IX-105] , and I need its recorded log10 of MIC.
A. 0.80

Q. I have this molecule here, Cc1c(NC(=O)C(Cc2ccccc2)NC(=O)c2ccccc2)cccc1-n1cncn1 (centres unmarked) [I-204] , and I need its recorded log10 of MIC.
A. 1.40

Q. I have this molecule here, O=C(NC(Cc1ccccc1)C(=O)Nc1cc(F)ccc1N1CCNCC1)c1cccs1 (centres unmarked) [IX-216] , and I need its recorded log10 of MIC.
A. 0.19

Q. I have this molecule here, Cc1ccccc1NC(=O)C(Cc1ccccc1)NC(=O)c1ccccn1 (centres unmarked) [II-12] , and I need its recorded log10 of MIC.
A. 1.40

Q. I have this molecule here, O=C(NC(Cc1ccccc1)C(=O)Nc1cccc2[nH]ncc12)c1ccccc1 (centres unmarked) [IX-37] , and I need its recorded log10 of MIC.
A. 1.10

Q. I have this molecule here, O=C(NC(Cc1ccc(O)cc1)C(=O)Nc1cccc2cc[nH]c12)c1ccccc1 (centres unmarked) [IX-40] , and I need its recorded log10 of MIC.
A. 1.10

Q. I have this molecule here, O=C(NC(Cc1ccccc1)C(=O)Nc1cccc2cc[nH]c12)c1ccccc1F (centres unmarked) [IX-96] , and I need its recorded log10 of MIC.
A. 1.10

Data origin, for the record: patent US9919998B2
